Data provenance is the Human Domainome abundance scans (Beltran et al. 2025).

B1: Dystrobrevin alpha, residues 235 to 294; numbered along this chain, Q9Y4J8 (parent)
chain: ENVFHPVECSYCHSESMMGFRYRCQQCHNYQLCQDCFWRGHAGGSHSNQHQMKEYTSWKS

# Variants of: B1
# assay: abundance fitness (aPCA) (normalised: wild type 0, dead -1); higher = more abundant; growth selection in yeast, the domain comes from the species named
# test-parameters: Homo sapiens
Binary call on abundance fitness: Fulfilled from -0.04 upward, Not fulfilled beneath that.

- E8K: Not fulfilled
- T56D: Fulfilled
- Q25H: Not fulfilled
- H41E: Not fulfilled
- F20S: Fulfilled
- S47W: Not fulfilled
- E1T: Not fulfilled
- C24T: Not fulfilled
- C36K: Not fulfilled
- G40M: Not fulfilled

Now consider the entry below.
# input Kindly determine if abundance fitness recorded for A42I is above or exactly -0.04.
# output Not fulfilled
